Target: T1, HLA class I molecule B07.02
T1 construct: Purified MHC class I complex; also called HLA-B07:02
Experiment: competition with radiolabeled reference peptide on purified MHC I
Procedure: Peptides were incubated at varying concentrations with these complexes for 2 days, and the amount of remaining radiolabeled peptide bound to […] was measured using size exclusion gel-filtration.
readout_kind: log10 of IC50 (log10 of the value in nM)
Would you kindly interpret these values as log10 of IC50 expressed in nM?

Examples with answers:
GPPARVPAV (also called GATA3 . . ; CSNH)
2.34
VPAVPFDLHF (also called GATA3 . . ; CSNH)
3.32
KPKRDGYMF (also called GATA3 . . ; CSNH)
1.45
LPQARLCLI (also called MSH3(-1))
1.86
KPKRDGYMFL (also called GATA3 . . ; CSNH)
1.99

Items follow; give log10 of IC50 for each.
1. FATLQRSSL (also called GATA3 . . ; CSNH)
2. PPRPPRAAC (also called LMAN1(+1))
3. HVLPEPHLAL (also called GATA3 . . ; CSNH)
4. GPPRPPRAAC (also called LMAN1(+1))

A.
1. 1.15
2. 1.52
3. 3.12
4. 1.69

Parameter requested: log10 of IC50. Apply to each item below.
1. ALSASNSCF (also called FRG1B, L52S)
2. MFATLQRSSL (also called GATA3 . . ; CSNH)
3. QPVLWTTPPL (also called GATA3 . . ; CSNH)
4. RPLQTHVLPE (also called GATA3 . . ; CSNH)
5. EPHLALQPL (also called GATA3 . . ; CSNH)

A.
1: 2.84; 2: 2.43; 3: 2.04; 4: 3.40; 5: 1.23
